Test: Tmax in human plasma expressing CYP2C8*1/*1 polymorphism treated with losartan at 50 mg by LC/MS/MS analysis
Type: ADME, organism-based
parameter: Tmax (h)
Give just the numeric value; h need not be written.

Task: Fill in: Tmax of CCCCc1nc(Cl)c(C(=O)O)n1Cc1ccc(-c2ccccc2-c2nn[nH]n2)cc1 [CARBOXYLIC ACID METABOLITE] is ___
Output: 3.9

====

Experiment: AUC in human plasma expressing CYP2C8*3 allele carrier polymorphism at 25 to 320 mg by LC/MS/MS analysis
Type: ADME, organism-based
parameter: AUC (ng·h/mL)
Give just the numeric value; ng·h/mL need not be written.

Task: Fill in: AUC of `CCCCC(=O)N(Cc1ccc(-c2ccccc2-c2nnn[nH]2)cc1)[C@H](C(=O)O)C(C)C` is ___
Output: 37400
